Data credit: PubChem BioAssay

protocolSummary: 384-well plate pilot, post-Golgi transport modulator project, inhibition of yeast transport mutant growth (AID 636)
measurementContext: absorbance 615 nm, about 18 h, active compounds read high
Calls of active or inactive are those of the source. Rule as the data show it: active = inhibition above about 31%; inactive = the rest.
recordedMetric: inhibition

Please review the following examples before continuing.
molecule="c1ccc(Cn2nnnc2C(c2ccccn2)N2CCOCC2)cc1 (stereo unspecified)" measurement="-3.25% (inactive)"
molecule=CCOC(=O)c1sc(NS(=O)(=O)c2ccc(NC(C)=O)cc2)nc1C measurement="-1.97% (inactive)"
molecule=COc1cc(CC(=O)Oc2ccc3c(c2)OCO3)cc(OC)c1OC measurement="-2.93% (inactive)"
molecule="CN1[C@@H]2CC(OC(=O)[C@H](CO)c3ccccc3)C[C@H]1[C@@H]1O[C@@H]12 (stereo partly specified)" measurement="-2.08% (inactive)"
molecule=CCn1nccc1C(=O)Nc1nccs1 measurement="-4.34% (inactive)"

Let us move to another entry and its inhibition.
INPUT: Which measured inhibition value corresponds to CCN(CC)C(=O)c1ccc(NS(=O)(=O)c2ccccc2)cc1 ?
OUTPUT: -1.32% (inactive)
